assay procedure: qHTS profiling of the MIPE4 collection as inhibitors of Plasmodium falciparum (3D7) proliferation (AID 743344)
settings: P. falciparum 3D7 in erythrocytes, SYBR Green DNA fluorescence, 72 h; at 28.5 µM unless noted
Procedure: Plasmodium falciparum is a virulent malarial parasite that kills 1-2 million people worldwide each year. […] Because mature erythrocytes lack DNA, only Plasmodium-derived DNA is detected. The SYBR Green viability assay was adapted from a method described previously (Plouffe et al., 2008). […] The following morning, fluorescence intensity at 485(14) nm excitation and 535(25) nm emission wavelengths was measured on an EnVision (Perkin Elmer) plate reader. […]
Lab note: compare parasite growth, % of DMSO control against 20%. Equal or greater, write MET. Smaller, write NOT MET.

Does O=C(O)c1cc(=O)c2c(OCC(O)COc3cccc4oc(C(=O)O)cc(=O)c34)cccc2o1 have a reported parasite growth, % of DMSO control of at least 20%?
MET

Does CC1(C)CCC(C)(C)c2cc(NC(=O)c3ccc(C(=O)O)cc3)ccc21 have a reported parasite growth, % of DMSO control of at least 20%?
MET

Does C[C@H](Cn1cnc2c(N)ncnc21)OCP(=O)(O)O have a reported parasite growth, % of DMSO control of at least 20%?
MET

Does COC(=O)N[C@H](C(=O)N[C@@H](Cc1ccccc1)[C@@H](O)CN(Cc1ccc(-c2ccccn2)cc1)NC(=O)[C@@H](NC(=O)OC)C(C)(C)C)C(C)(C)C have a reported parasite growth, % of DMSO control of at least 20%?
NOT MET

Does O=C1CCc2ccc(OCCCCN3CCN(c4cccc(Cl)c4Cl)CC3)cc2N1 have a reported parasite growth, % of DMSO control of at least 20%?
MET

Does COc1c(O)cc2c(c1O)[C@@H]1O[C@H](CO)[C@@H](O)[C@H](O)[C@H]1OC2=O have a reported parasite growth, % of DMSO control of at least 20%?
MET

Origin of values: PubChem BioAssay (NCATS)
